# Test system: MDA-MB-453
# protocol.details: drug sensitivity score (DSS), in combination with BLU9931 (DSS (weighted AUC score)); higher = more sensitive (stronger viability decrease); extreme values may be limits of the assay
# experimental.conditions: BLU9931 100 nM; 72 h

{"molecule": "COC[C@H](NC(=O)c1cnc(C)s1)C(=O)N[C@@H](COC)C(=O)N[C@@H](Cc1ccccc1)C(=O)[C@@]1(C)CO1", "drug sensitivity score": 12.3}
{"molecule": "COC(=O)C[C@](O)(CCCC(C)(C)O)C(=O)O[C@@H]1C(OC)=C[C@]23CCCN2CCc2cc4c(cc2[C@H]13)OCO4", "drug sensitivity score": 20.5}
{"molecule": "O=C(O)C(=O)O.[NH-][C@@H]1CCCC[C@H]1[NH-].[Pt+2]", "drug sensitivity score": 7}
{"molecule": "CC(=O)N(O)CCCCCNC(=O)CCC(=O)N(O)CCCCCNC(=O)CCC(=O)N(O)CCCCCN", "drug sensitivity score": 4.3}
{"molecule": "CC1CCC(n2c3cnccc3c3cnc(Nc4ccc5c(n4)CCN(C(=O)CO)C5)nc32)CC1 (configuration not stated)", "drug sensitivity score": 3.4}
{"molecule": "CCC(C)n1ncn(-c2ccc(N3CCN(c4ccc(OCC5COC(Cn6cncn6)(c6ccc(Cl)cc6Cl)O5)cc4)CC3)cc2)c1=O (configuration not stated)", "drug sensitivity score": 1.5}
{"molecule": "O=C1CCC(N2C(=O)c3ccccc3C2=O)C(=O)N1 (configuration not stated) [Thalidomide]", "drug sensitivity score": 1}
{"molecule": "Cn1cc(-c2ccc(F)c(C(F)(F)F)c2)nc1C1CCN(c2ncnc3[nH]ncc23)CC1", "drug sensitivity score": 3.9}
{"molecule": "COc1ncc(-c2ccc3nccc(-c4ccnnc4)c3c2)cc1NS(=O)(=O)c1ccc(F)cc1F", "drug sensitivity score": 25.1}
{"molecule": "CS(=O)(=O)c1ccc(-c2cnc(N)c(C(=O)Nc3ccccc3)n2)cc1", "drug sensitivity score": 4.7}
{"molecule": "CC1(C)OCCn2c1nc1c(N3CCOCC3)nc(-c3cnc(N)nc3)nc12", "drug sensitivity score": 17.4}
{"molecule": "Cc1c(-c2ccc(N3CCc4cccc(C(=O)Nc5nc6ccccc6s5)c4C3)nc2C(=O)O)cnn1CC12CC3CC(CC(C3)C1)C2", "drug sensitivity score": 5.4}
{"molecule": "COc1cc2c(cc1OCCCN1CCCC1)N=C(N)C21CCC1", "drug sensitivity score": 0}
{"molecule": "CC(=O)c1cc2c(o1)C(=O)c1ccccc1C2=O", "drug sensitivity score": 0}
{"molecule": "CNCc1ccc(-c2[nH]c3cc(F)cc4c3c2CCNC4=O)cc1", "drug sensitivity score": 0}
{"molecule": "C[C@]1(O)C[C@@H](c2nc(-c3ccc4ccc(-c5ccccc5)nc4c3)c3c(N)nccn32)C1", "drug sensitivity score": 1}
{"molecule": "Cc1nc(C(=O)NCC(=O)O)c(O)c2ccc(Oc3ccccc3)cc12", "drug sensitivity score": 0}

----------
# Test system: MDA-MB-453
# protocol.details: drug sensitivity score (DSS), in combination with BLU9931 (DSS (weighted AUC score)); higher = more sensitive (stronger viability decrease); extreme values may be limits of the assay
# experimental.conditions: BLU9931 100 nM; 72 h

{"compound": "CCn1c(C(=O)N(C2CC2)C2CC2)cc2c3c(ncn3C)c(Nc3cc(C)n(C)n3)nc21", "drug sensitivity score": 0}
{"compound": "COc1cc([C@@H]2c3cc4c(cc3[C@@H](O[C@@H]3O[C@@H]5CO[C@@H](C)O[C@H]5[C@H](O)[C@H]3O)[C@H]3COC(=O)[C@H]23)OCO4)cc(OC)c1O [Etoposide]", "drug sensitivity score": 2.9}
{"compound": "Cc1c(F)cc(C(=O)NC2CC2)cc1-c1ccc(C(=O)NCC(C)(C)C)cn1", "drug sensitivity score": 1.4}
{"compound": "CC(C)Oc1ccc(-c2nn([C@@H](C)c3oc4ccc(F)cc4c(=O)c3-c3cccc(F)c3)c3ncnc(N)c23)cc1F", "drug sensitivity score": 0}
{"compound": "O=c1[nH]cc(F)c(=O)[nH]1", "drug sensitivity score": 0.1}
{"compound": "COc1ccc(S(=O)(=O)Nc2cccnc2Nc2ccc(O)cc2)cc1", "drug sensitivity score": 7.9}
{"compound": "CC(C)(C)C[C@@H]1N[C@@H](C(=O)N[C@H]2CC[C@H](O)CC2)[C@H](c2cccc(Cl)c2F)[C@]12C(=O)Nc1cc(Cl)ccc12", "drug sensitivity score": 0}
{"compound": "CCCCOc1nc(N)c2c(n1)N(Cc1cccc(CN3CCCC3)c1)CC(=O)N2", "drug sensitivity score": 0}
{"compound": "CC(C)(C)Cn1c(N)nc2ccc(-c3[nH]c(C(C)(C)C)nc3-c3ccc(F)cc3)nc21", "drug sensitivity score": 0.8}
{"compound": "Cc1ccc(C(=O)Nc2ccc(Oc3cc4cnn(C)c4cc3-c3cn[nH]c3)c(F)c2)c(=O)n1-c1ccc(F)cc1", "drug sensitivity score": 0}
{"compound": "O=C(CCNC(=O)c1ccc(OC(F)(F)F)cc1)N[C@@H]1CCCc2ccccc21", "drug sensitivity score": 3}
{"compound": "O=C1CN2Cc3c(ccc(Cl)c3Cl)N=C2N1 [Anagrelide]", "drug sensitivity score": 0}
{"compound": "COc1ccc(COc2cc3oc(=O)c4cc(C(C)O)ccc4c3cc2OC)cc1 (stereo unspecified)", "drug sensitivity score": 0}
{"compound": "CCN1CCN(c2ccc(Nc3cc(N(C)C(=O)Nc4c(Cl)c(OC)cc(OC)c4Cl)ncn3)cc2)CC1", "drug sensitivity score": 0}
{"compound": "O=C(/C=C\\n1cnc(-c2cc(C(F)(F)F)cc(C(F)(F)F)c2)n1)NNc1ccccn1 [Verdinexor]", "drug sensitivity score": 4.9}
{"compound": "Cn1ncc(Cl)c1-c1cc(C(=O)N[C@H](CN)Cc2cccc(F)c2)sc1Cl", "drug sensitivity score": 8.4}
